Where do the numbers come from? From patent US4582934A.

System: Resistant Plutella xylostella
Assay notes: Indoor test on 3rd-instar larvae of Plutella xylostella, resistant insects (cabbage leaf dip)
Type: in vivo
Conditions: Plutella xylostella, foliar, 72 h, read-out: LC50 (50% lethal concentration)
Measure: LC50
# answer = value followed by unit

# Input smiles, Target under test, LC50
data = [
    ("CC(C)(C(=O)Nc1ccc(F)cc1)c1ccc(Cl)cc1Cl", "Resistant Plutella xylostella", "128 µg/mL"),
    ("CCN(C(=O)C(C)(C)c1ccc(Cl)cc1)c1ccc(Cl)cc1", "Resistant Plutella xylostella", "53 µg/mL"),
    ("CC(C)(C(=O)Nc1ccc(Cl)cc1)c1ccc(Br)cc1", "Resistant Plutella xylostella", "129 µg/mL"),
]

Challenge: LC50 lookup needed for CC(C)(C(=O)Nc1ccc(Br)cc1)c1ccc(Cl)cc1 , thanks.
Response given: 51 µg/mL

Challenge: LC50 lookup needed for CCN(C(=O)C(C)(C)c1ccc(F)cc1)c1ccc(Br)cc1 , thanks.
Response given: 93 µg/mL

Challenge: LC50 lookup needed for CC(C)(C(=O)Nc1ccc(F)cc1)c1ccc(Cl)cc1 , thanks.
Response given: 123 µg/mL

Challenge: LC50 lookup needed for CCN(C(=O)C(C)(C)c1ccc(Cl)cc1)c1ccc(Br)cc1 , thanks.
Response given: 46 µg/mL

###

Tested on: Resistant Plutella xylostella
Assay notes: Indoor test on 3rd-instar larvae of Plutella xylostella, resistant insects (cabbage leaf dip)
Type: in vivo
Conditions: Plutella xylostella, foliar, 72 h, read-out: LC50 (50% lethal concentration)
Listed molecules paired with reported LC50

Below: 3 molecules and their reported LC50.
# Molecule, LC50
data = [
    ("CC(C)(C(=O)Nc1ccc(C(F)(F)F)cc1)c1ccc(Cl)cc1 [Compound No. 4]", "96 µg/mL"),
    ("CC(C)(C(=O)Nc1ccc(Cl)cc1)c1ccc(F)cc1 [compound 11]", "111 µg/mL"),
    ("CC(C)(C(=O)Nc1ccc(C(F)(F)F)cc1)c1ccccc1F [compound 17]", "256 µg/mL"),
]

Note: attention shifts to another entry.
Challenge: LC50 lookup needed for CCCN(C(=O)C(C)(C)c1ccc(Cl)cc1)c1ccc(Cl)cc1 [compound 8] , thanks.
Response given: 204 µg/mL
